# credit: patent US7517874B2

target: rat CB2 receptor (rCB2) (Rattus norvegicus); test: cell-based; assay type: cell-based; conditions: agonist or inverse agonist at rCB2
PROPERTY_MEASURED: +/− RCB2

Worked examples follow.
{"columns": ["SMI", "MEASURED_VALUE"],
 "data": [
  ["CNC(=O)[C@H](CC(C)C)NC(=O)c1nc(-c2ccc(Cl)cc2F)n2c1CN(C)CCC2", "+"],
  ["CNC(=O)[C@@H](NC(=O)c1nc(C2CCCC2)n2c1CN(C)CC2)C(C)(C)C", "+"],
  ["CC(C)(C)c1noc([C@@H](NC(=O)c2nc(-c3ccccc3)n3c2CN(C2CC2)CC3)C(C)(C)C)n1", "−"],
  ["CNC(=O)[C@@H](NC(=O)c1nc(-c2ccccc2)n2c1CN(c1ncccn1)CC2)C(C)(C)C", "+"],
  ["CCCNC(=O)[C@@H](NC(=O)c1nc(-c2ccccc2)n2c1CN(C)CCC2)C(C)(C)C", "+"],
  ["CCS(=O)(=O)N1CCn2c(-c3ccccc3)nc(C(=O)N[C@@H](C)c3ccccc3)c2C1", "−"]
]}

## Input Give the measured +/− RCB2 for `CNC(=O)[C@@H](NC(=O)c1nc(-c2cc(F)cc(C(N)=O)c2)n2c1CN(C)CCC2)C(C)(C)C`
## Output +

====

Target: rat CB2 receptor (rCB2) (Rattus norvegicus, UniProt Q9QZN9)
Sequence (Q9QZN9 1-360): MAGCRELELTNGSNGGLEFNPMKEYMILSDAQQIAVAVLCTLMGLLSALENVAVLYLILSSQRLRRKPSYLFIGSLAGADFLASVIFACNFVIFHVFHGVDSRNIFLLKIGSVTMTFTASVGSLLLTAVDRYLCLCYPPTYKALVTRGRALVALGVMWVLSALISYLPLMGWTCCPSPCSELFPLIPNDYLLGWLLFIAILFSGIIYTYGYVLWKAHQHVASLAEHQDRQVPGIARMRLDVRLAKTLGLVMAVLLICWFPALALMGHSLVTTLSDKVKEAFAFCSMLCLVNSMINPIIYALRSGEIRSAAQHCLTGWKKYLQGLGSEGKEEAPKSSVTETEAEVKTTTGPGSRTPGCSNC
Assay: cell-based
Format: cell-based
Conditions: agonist or inverse agonist at rCB2
PROPERTY_MEASURED: +/− RCB2

Some compounds with recorded +/− RCB2:
{"columns": ["COMPOUND", "+/− RCB2"],
 "data": [
  ["CNC(=O)[C@@H](NC(=O)c1nc(C(C)C)n2c1CN(C)CCC2)C(C)(C)C [Compound 496]", "+"],
  ["CNC(=O)[C@@H](NC(=O)c1nc(-c2cccc(C)c2)n2c1CNCC2)C(C)(C)C [Compound 8]", "−"],
  ["C[C@H](NC(=O)c1nc(-c2ccccc2)n2c1CNCC2)c1ccccc1 [Compound 40]", "+"],
  ["CNC(=O)[C@@H](NC(=O)c1nc(-c2ccccc2)n2c1CN(C(=O)OC(C)(C)C)CCC2)C(C)(C)C [Compound 312]", "−"]
]}

Give +/− RCB2 for each listed item.
1. CNC(=O)[C@@H](NC(=O)c1nc(-c2ccccc2C(F)(F)F)n2c1CN(C)CC2)C(C)(C)C [Compound 255]
2. CNC(=O)[C@@H](NC(=O)c1nc(CCC(C)(C)C)n2c1CN(C)CCC2)C(C)(C)C [Compound 488]
3. CCCC/C=C/c1nc(C(=O)N[C@H](C(=O)NC)C(C)(C)C)c2n1CCCN(C)C2 [Compound 400]
4. CNC(=O)[C@@H](NC(=O)c1nc(-c2ccsc2)n2c1CN(C)CCC2)C(C)(C)C [Compound 329]

## Output
1. +
2. +
3. +
4. +
